Biological target: Voltage-gated inwardly rectifying potassium channel KCNH2 (Homo sapiens) (UniProt Q12809)
Sequence (Q12809 whole entry, looked up): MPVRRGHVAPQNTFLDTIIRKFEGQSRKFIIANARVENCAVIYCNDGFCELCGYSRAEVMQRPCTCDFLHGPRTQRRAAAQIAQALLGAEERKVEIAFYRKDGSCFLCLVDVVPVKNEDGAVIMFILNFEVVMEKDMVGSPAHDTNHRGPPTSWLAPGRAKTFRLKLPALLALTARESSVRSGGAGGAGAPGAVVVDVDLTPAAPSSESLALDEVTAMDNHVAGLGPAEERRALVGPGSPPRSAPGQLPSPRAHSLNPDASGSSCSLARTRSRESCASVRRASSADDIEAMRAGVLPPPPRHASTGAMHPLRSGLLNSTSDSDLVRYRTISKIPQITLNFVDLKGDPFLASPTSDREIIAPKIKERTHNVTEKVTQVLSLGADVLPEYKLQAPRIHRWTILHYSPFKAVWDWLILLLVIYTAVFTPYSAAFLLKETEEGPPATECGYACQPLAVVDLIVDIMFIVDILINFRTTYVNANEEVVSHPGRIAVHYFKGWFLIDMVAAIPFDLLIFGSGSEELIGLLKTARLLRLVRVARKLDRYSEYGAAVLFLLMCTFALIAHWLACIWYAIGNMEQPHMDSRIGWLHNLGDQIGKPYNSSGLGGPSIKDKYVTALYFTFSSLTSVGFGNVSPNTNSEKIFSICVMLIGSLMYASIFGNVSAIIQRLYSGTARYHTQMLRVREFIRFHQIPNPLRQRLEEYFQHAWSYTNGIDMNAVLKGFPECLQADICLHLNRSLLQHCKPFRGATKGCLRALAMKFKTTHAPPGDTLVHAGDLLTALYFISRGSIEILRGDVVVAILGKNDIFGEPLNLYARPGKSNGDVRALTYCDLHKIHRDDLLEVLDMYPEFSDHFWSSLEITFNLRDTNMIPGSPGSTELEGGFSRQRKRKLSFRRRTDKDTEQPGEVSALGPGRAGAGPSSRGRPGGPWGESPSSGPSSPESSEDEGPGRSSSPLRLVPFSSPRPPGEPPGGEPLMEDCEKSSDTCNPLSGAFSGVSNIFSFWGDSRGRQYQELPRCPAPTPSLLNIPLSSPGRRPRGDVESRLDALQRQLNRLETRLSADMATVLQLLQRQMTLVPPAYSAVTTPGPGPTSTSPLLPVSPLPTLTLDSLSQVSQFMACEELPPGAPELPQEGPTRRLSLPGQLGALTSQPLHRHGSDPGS
Experiment: qHTS Assay for Small Molecule Inhibitors of the Human hERG Channel Activity (AID 588834);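 also: lower thallium flux fluorescence means stronger hERG block; nearly all actives have a fitted effect of over 50% in size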; also: potency is read from the fitted curve at half-maximal effect
Conditions: U2OS BacMam hERG, FluxOR thallium flux fluorescence; series mostly up to 46.1 µM
Inconclusive results are not listed. Calls of active or inactive are those of the source. Calls follow the shape of the dose curve; as a rule, active = well fitted inhibition curve with a large enough effect; inconclusive = small, poorly fitted or top-dose-only effect; inactive = flat fitted curve, though single readings scatter.
measurement_type: Potency

// known answers, use as guide
Give Potency for C#C[C@]1(O)CC[C@H]2[C@@H]3CCC4=CC(=O)CC[C@@H]4[C@H]3CC[C@@]21CC inactive

Give Potency for CCCCCCCCNC(C)C(O)c1ccc(SC(C)C)cc1 (configuration not stated) 0.631 µM (active)

Give Potency for O=C(Nc1ccc([N+](=O)[O-])cc1)Nc1ccc([N+](=O)[O-])cc1 14.1 µM (active)

Give Potency for OC(C#CCN1CCCC1)(c1ccccc1)c1ccccc1 22.4 µM (active)

Give Potency for CCN1/C(=C/C=C/c2sc3ccccc3[n+]2CC)Sc2ccccc21 1.41 µM (active)

Give Potency for N=C(N)N1CCc2ccccc2C1 inactive

Give Potency for C[C@@H](O)[C@H]1C(=O)N2C(C(=O)O)=C([C@H]3CCCO3)S[C@H]12 inactive

Give Potency for O=C(O)CCc1nc2ccccc2[nH]1 inactive

Give Potency for CCCCCCCCCCCCCC[N+](C)(C)Cc1ccccc1 7.94 µM (active)

Give Potency for COC(=O)C(c1ccccc1Cl)N1CCc2sccc2C1 (configuration not stated) inactive

New cases:
Give Potency for CC[C@H](c1ccc(O)cc1)[C@@H](CC)c1ccc(O)cc1 inactive

Give Potency for CN1CCC(OC(c2ccccc2)c2ccccc2)CC1 4.47 µM (active)

---

Test system: Dd2
Test: qHTS profiling for inhibitors of Plasmodium falciparum proliferation (AID 504749); also: nearly all actives have a fitted effect of over 60% in size
Details: P. falciparum in erythrocytes, SYBR Green DNA, 72 h; series mostly up to 28.7 µM
Inconclusive results are not listed. Activity calls are given as the source filed them. Calls follow the shape of the dose curve; as a rule, active = well fitted inhibition curve with a large enough effect; inconclusive = small, poorly fitted or top-dose-only effect; inactive = flat fitted curve, though single readings scatter.
Response enum: class 1 = active, class 0 = inactive

Here are 2 compounds together with their reported answers.
Kindly provide the recorded test outcome for the following compound: CC(=O)Nc1ccc(CC(=O)O)cc1 class 0

Kindly provide the recorded test outcome for the following compound: NC(N)=NN=C(/C=C/c1ccc([N+](=O)[O-])o1)/C=C/c1ccc([N+](=O)[O-])o1 class 1

New cases:
Kindly provide the recorded test outcome for the following compound: Cc1cccc(C)c1NC(=O)c1ccccc1C(=O)O class 0

Kindly provide the recorded test outcome for the following compound: NS(=O)(=O)Cc1noc2ccccc12 class 0

Kindly provide the recorded test outcome for the following compound: Oc1ccc(Cl)cc1Cc1cc(Cl)ccc1O class 0

Kindly provide the recorded test outcome for the following compound: NCCNC(=O)c1ccc(Cl)cn1 class 0

Kindly provide the recorded test outcome for the following compound: CC(C)(C)CC(C)(C)c1ccc(O)c(-n2nc3ccccc3n2)c1 class 1

---

Tested on: MCC-13
Experiment: qHTS assay to identify novel small-molecules to repurpose for Merkel cell carcinoma treatment (AID 1296009); also: nearly all actives have a fitted effect of over 60% in size
Settings: MCC and control cell lines, CellTiter-Glo viability, 72 h; series mostly up to 46 µM
Inconclusive results are not listed. Active and inactive are the calls of the source. Calls come from the whole dose curve; as a rule, active = well fitted inhibition curve with a large enough effect; inconclusive = small, poorly fitted or top-dose-only effect; inactive = flat fitted curve, though single readings scatter.
Response enum: t for active, f for inactive

Kindly provide the recorded test outcome for the following compound: O=[N+]([O-])c1ccc(/C=N\O)o1 f

Kindly provide the recorded test outcome for the following compound: CC(C)=CCOc1ccc(/C=C/C(=O)c2ccc(OCC=C(C)C)cc2OCC(=O)O)cc1 f

Kindly provide the recorded test outcome for the following compound: COc1ccc(-c2cc(C(F)F)nn2-c2ccc(S(N)(=O)=O)cc2)cc1F f

Kindly provide the recorded test outcome for the following compound: OC[C@H]1O[C@@H](Oc2ccc(O)cc2)[C@H](O)[C@@H](O)[C@@H]1O f

Kindly provide the recorded test outcome for the following compound: O=C(NCCc1c[nH]c2ccccc12)c1cccnc1 f

Kindly provide the recorded test outcome for the following compound: FC(F)(F)C(F)(F)C(F)(F)C(F)(F)C(F)(F)C(F)(F)C(F)(F)C(F)(F)Br f

Kindly provide the recorded test outcome for the following compound: Cc1ncc(CO)c(C=O)c1O f

Kindly provide the recorded test outcome for the following compound: COc1ccc(C(Cl)=C(c2ccc(OC)cc2)c2ccc(OC)cc2)cc1 f

New cases:
Kindly provide the recorded test outcome for the following compound: CC(=C(CCOC(=O)C(C)C)SSC(CCOC(=O)C(C)C)=C(C)N(C=O)Cc1cnc(C)nc1N)N(C=O)Cc1cnc(C)nc1N f

Kindly provide the recorded test outcome for the following compound: CC(C(=O)O)c1cccc(Oc2ccccc2)c1 (stereo not drawn) f

---

System: DFO2036
Assay: qHTS profiling for inhibitors of Plasmodium falciparum proliferation (AID 504749); also: nearly all actives have a fitted effect of over 60% in size
Conditions: P. falciparum in erythrocytes, SYBR Green DNA, 72 h; series mostly up to 28.7 µM
Records with an inconclusive call do not appear. Activity calls are given as the source filed them. The call rests on the fitted dose curve; in most records, active means well fitted inhibition curve with a large enough effect; inconclusive means small, poorly fitted or top-dose-only effect; inactive means flat fitted curve, though single readings scatter.
Response enum: Yes (active), No (inactive)

Here are 3 compounds together with their reported answers.
Kindly provide the recorded test outcome for the following compound: Cc1ccc(O)c([C@H](CCN(C(C)C)C(C)C)c2ccccc2)c1 Yes

Kindly provide the recorded test outcome for the following compound: CCCCCN=C(N)N/N=C/c1c[nH]c2ccc(OC)cc12 Yes

Kindly provide the recorded test outcome for the following compound: O=c1[nH]c(=O)n([C@H]2C[C@H](O)[C@@H](CO)O2)cc1F No

New cases:
Kindly provide the recorded test outcome for the following compound: Cc1ccccc1OCC(O)CO (configuration not stated) No

Kindly provide the recorded test outcome for the following compound: NC(N)=NN=C(/C=C/c1ccc([N+](=O)[O-])o1)/C=C/c1ccc([N+](=O)[O-])o1 Yes

Kindly provide the recorded test outcome for the following compound: COc1ccc(-c2cc(C(F)F)nn2-c2ccc(S(N)(=O)=O)cc2)cc1F No

Kindly provide the recorded test outcome for the following compound: COc1ccc(CCN(C)CCCN2CCc3cc(OC)c(OC)cc3CC2=O)cc1OC No

Kindly provide the recorded test outcome for the following compound: CCc1ccc(C(=O)C(C)CN2CCCCC2)cc1 (configuration not stated) No

Kindly provide the recorded test outcome for the following compound: COc1ccc(C(Cl)=C(c2ccc(OC)cc2)c2ccc(OC)cc2)cc1 Yes

---

Target: Rap guanine nucleotide exchange factor 4 (Homo sapiens) (UniProt Q8WZA2)
Sequence (Q8WZA2 whole entry, looked up): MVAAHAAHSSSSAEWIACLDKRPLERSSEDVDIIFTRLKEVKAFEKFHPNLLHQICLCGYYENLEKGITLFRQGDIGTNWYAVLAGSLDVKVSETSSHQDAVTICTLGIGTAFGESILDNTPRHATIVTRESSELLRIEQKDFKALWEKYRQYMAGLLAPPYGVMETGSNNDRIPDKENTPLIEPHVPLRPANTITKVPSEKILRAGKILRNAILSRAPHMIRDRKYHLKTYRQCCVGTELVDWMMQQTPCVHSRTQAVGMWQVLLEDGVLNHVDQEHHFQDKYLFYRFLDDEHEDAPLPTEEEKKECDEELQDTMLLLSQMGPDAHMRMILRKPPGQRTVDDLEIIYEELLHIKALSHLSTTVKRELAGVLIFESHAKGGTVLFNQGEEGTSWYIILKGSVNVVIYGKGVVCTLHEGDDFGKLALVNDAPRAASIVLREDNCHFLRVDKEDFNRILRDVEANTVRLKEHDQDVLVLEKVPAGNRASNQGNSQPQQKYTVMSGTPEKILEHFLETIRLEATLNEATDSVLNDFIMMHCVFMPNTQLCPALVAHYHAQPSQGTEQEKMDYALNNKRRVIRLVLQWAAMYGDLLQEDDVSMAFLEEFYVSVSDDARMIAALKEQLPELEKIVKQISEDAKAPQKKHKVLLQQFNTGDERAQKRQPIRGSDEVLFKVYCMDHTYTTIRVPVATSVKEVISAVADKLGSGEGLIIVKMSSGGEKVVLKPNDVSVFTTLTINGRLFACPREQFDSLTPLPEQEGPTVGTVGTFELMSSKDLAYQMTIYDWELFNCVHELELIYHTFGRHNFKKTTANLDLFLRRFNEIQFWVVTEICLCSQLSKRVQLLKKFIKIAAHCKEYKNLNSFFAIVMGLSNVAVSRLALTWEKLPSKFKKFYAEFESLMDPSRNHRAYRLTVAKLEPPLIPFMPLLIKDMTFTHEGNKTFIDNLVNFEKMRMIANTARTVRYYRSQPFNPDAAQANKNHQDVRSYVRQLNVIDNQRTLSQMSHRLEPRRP
Experiment: Confirmatory qHTS for antagonist of cAMP-regulated guanine nucleotide exchange factor 4 (EPAC2) (AID 1645885); also: nearly all actives have a fitted effect of over 25% in size
Conditions: EPAC2 Rap1B-BODIPY-GDP exchange fluorescence, biochemical; series mostly up to 114 µM
Inconclusive results are not listed. Activity calls are given as the source filed them. The call rests on the fitted dose curve; in most records, active means well fitted inhibition curve with a large enough effect; inconclusive means small, poorly fitted or top-dose-only effect; inactive means no such curve, though single readings can be large or run the other way.
Response enum: active, inactive

Kindly provide the recorded test outcome for the following compound: C=C1c2cccc(O)c2C(O)=C2C(=O)[C@]3(O)C(O)=C(C(N)=O)C(=O)[C@@H](N(C)C)[C@@H]3[C@@H](O)[C@H]12 inactive

Kindly provide the recorded test outcome for the following compound: CC(C)=CCOc1ccc(/C=C/C(=O)c2ccc(OCC=C(C)C)cc2OCC(=O)O)cc1 active

New cases:
Kindly provide the recorded test outcome for the following compound: Cl/C(=C\n1cncn1)c1ccc(Cl)cc1Cl inactive

Kindly provide the recorded test outcome for the following compound: COc1ccc(C(=O)c2ccccc2)c(O)c1 active

Kindly provide the recorded test outcome for the following compound: CC1(COc2ccc(CC3SC(=O)NC3=O)cc2)CCCCC1 (stereo not given) active

---

System: CP194
Experiment: qHTS profiling for inhibitors of Plasmodium falciparum proliferation (AID 504749); also: nearly all actives have a fitted effect of over 60% in size
Conditions: P. falciparum in erythrocytes, SYBR Green DNA, 72 h; series mostly up to 28.7 µM
Inconclusive results are not listed. Active and inactive are the calls of the source. Calls come from the whole dose curve; as a rule, active = well fitted inhibition curve with a large enough effect; inconclusive = small, poorly fitted or top-dose-only effect; inactive = flat fitted curve, though single readings scatter.
Response enum: 1.0 (active), 0.0 (inactive)

Here are 2 compounds together with their reported answers.
Kindly provide the recorded test outcome for the following compound: CCNC(=O)NCc1cccc(Cl)c1 0.0

Kindly provide the recorded test outcome for the following compound: NC(=S)N/N=C/c1cccnc1 0.0

New cases:
Kindly provide the recorded test outcome for the following compound: O=C(Nc1ncc([N+](=O)[O-])s1)c1cccs1 0.0

Kindly provide the recorded test outcome for the following compound: CCCc1ncc(C[n+]2ccccc2C)c(N)n1 0.0

Kindly provide the recorded test outcome for the following compound: O=C1C(=O)c2ccccc2C(O)=C1C1CCC(c2ccc(Cl)cc2)CC1 (stereo not given) 1.0

Kindly provide the recorded test outcome for the following compound: CCCCCCCCCCCCOCCOCCOCCOCCOCCOCCOCCOCCOCCO 0.0

Kindly provide the recorded test outcome for the following compound: CC(C)Nc1cccnc1N1CCN(C(=O)c2cc3cc(NS(C)(=O)=O)ccc3[nH]2)CC1 0.0

Kindly provide the recorded test outcome for the following compound: CC(=O)Nc1ccc(OCC(O)CNC(C)C)cc1 (stereo not given) 0.0

Kindly provide the recorded test outcome for the following compound: O=[N+]([O-])c1cccc(S(=O)(=O)NCCNS(=O)(=O)c2cccc([N+](=O)[O-])c2)c1 0.0

Kindly provide the recorded test outcome for the following compound: C#C[C@]1(O)CC[C@H]2[C@@H]3CCC4=Cc5oncc5C[C@]4(C)[C@H]3CC[C@@]21C 0.0

Kindly provide the recorded test outcome for the following compound: Cn1c(=O)c2[nH]c(Br)nc2n(C)c1=O 0.0

Kindly provide the recorded test outcome for the following compound: N#CCC(=O)NN 0.0

Kindly provide the recorded test outcome for the following compound: COc1ccc(CN(CCN(C)C)c2ncccn2)cc1 0.0

Kindly provide the recorded test outcome for the following compound: CC(C)CCCC(C)N (stereo not given) 0.0

Kindly provide the recorded test outcome for the following compound: C[N+]1(C)CCC(=C(c2ccccc2)c2ccccc2)CC1 0.0

Kindly provide the recorded test outcome for the following compound: CN1CCN(CCC(=O)N2c3ccccc3Sc3ccc(C(F)(F)F)cc32)CC1 0.0

Kindly provide the recorded test outcome for the following compound: OCc1ccccn1 0.0

Kindly provide the recorded test outcome for the following compound: COc1cc(C(=O)NCc2ccc(OCCN(C)C)cc2)cc(OC)c1OC 0.0

Kindly provide the recorded test outcome for the following compound: COc1ccc(-c2cc(C(F)F)nn2-c2ccc(S(N)(=O)=O)cc2)cc1F 0.0
